- measurement_notes: soluble on expression in E. coli; label from the status in PepcDB or PDB records
property_label: soluble on expression in E. coli

• MGSDKIHHHHHHMEKAERLTGTPDYAVLPGRILDKTLAGRGLQKAEFAERCGHSAKMISEIIAGKAPIMPETALEFERVLGMPASYWLTLESLYRLRLAEQRDRQRLSDQRDWAKRFPIAAMVRLGWIDKPSDRVDEVAKLLAFFGVASVEAWQAMTASAAEQIAYRRSPSFQSAPESVSAWLRRGEMVAGARPCGPFDEAGFRRVLKSVRELTREAPEVFQPSLIERCACVGVAVVFTPELPKTCLSGATRWLSKDKALIQLSLRHKTDDHLWFTFFHEAGHVLLHPKKLILEEKLKKGEAPTPESAQREREANVFAATTLIPRSAWMAFTAAGDFSAPRIRAFAKEHSLSPGIIVGQLQHDSHLSYATTLNSLKTTFRWPAESAVSHPSV = not soluble
• MIKGGGGKSSGYSADLMVCFPSRAHLSLPSKSISSPSSSFNRRQNAPHHRRSISKLSSSGGGVRQNRGGGREVVEEPTSPKVTCAGQIKVRSSKRDGGGKNWQSLMAEIEKIHRSKSESKFFGIKRDVMGFLTCLRDFDFRCFGAFPPVDIISDDEEEDEEEEEEDEEEDEDESSGTVFSKWLMVLHEKQNNEECVDGKENVFSDVETAVPPPNALLLMRCRSAPVKNWSEEKKEETEEGDNRVKQSGEEEEEEKDRVGNKKDLRSLMEEEKKMNLVVMNYDTNYYKLSNDIAKETWVVGGIQDPLFRSRSWKK = not soluble

====

- measurement_notes: soluble on expression in E. coli; label from the status in PepcDB or PDB records
property_label: soluble on expression in E. coli

* MSLASLCDLVGLPRSSFYRQSVFKVLEDQECETELRHQMQLICLEMPGYSYRRITAELHRRGWPVNHKRVLRLMRQDNLLCLRRKAFVRTTDSEHGFRVYPNLATNLMPSGLNQLWISDITYIRLQEEFVYLAIILDRYSRRVIGWSLSRHIDMELSLSALRMALSNREVLPGLIHHSDRGVQYASKAYIELLEEHKIAISMSRRGNPYDNAFAESFMKTLKYEEVLLNEYGDYREAQGNIARFIEEVYNRKRLHSSIGYLPPVEFEARVEHEISPASHPTEGHHHHHH | soluble
* MKKWEKQTMKIAALGAMALTLAGCATAKSSSSQGNNPGKTIKIGVNMELSGSAAGYGEQQKQGIQLAVKKINKSGGIKVGGTKKKIQLVIRDNKTSNTTAASVAAQLVNNDKVVAVVGPATTSAGTAAIPNMTKAAVPSVSPSATDPDYTLQKSGKVQKYIFRACYQNNFQGATAATFVTKNLKAKRVAILTDNSSDYGTGLTKAFKKQYRGTVVSSQTFQEGDKDFNAILTALKHKKIDAIYAPGYYSEIGLIVKQARQAGIKAPIVGSDGMADAKLAQIAGKSNATNVYYTTPFSTKASATNKVASKFMSAYKAKYGSTAPTFSALAYDSVYMIKAAIEKEGSANSVKIADGLAKLKNFKGVTGTMTIDKQHNPEKTISIEQLTNGVVSKVYNVK | soluble

====

- measurement_notes: soluble on expression in E. coli; label from the status in PepcDB or PDB records
property_label: soluble on expression in E. coli

- MSQFAVIIFGDQAKANEASRVLTELQADNSLVLFSQAVIAKDLAGTVSLMAPASGGAVGSAVSGLASRLIGVPVGGHGDLSDAGVLDSFCQEAADALKPGATAIVAEISEDRLGPLNTQMHALGGQVLRSCNSDSEGDEIAKQTARQIANIERLNAEYVRAPQDADKPGETPVDAVTLAPDERASNQSIVKANAEARSAKLSQACGLTKDALG: not soluble
- MDKTVFQQDLAPYVKYSLNKKKRWETGNDKNYLSEVQKRYRGMDMFVIDRVRLNSSPYFCFISRENFFHNYFLQFPIRQLHQLNADNSYSYVYANQTYGQSYKSLQPENRSPSKSKSAKKPELYQNAKVAYHIITPPKNYEKLQAPKFCPGSSDRNLTHRTLTHWRRVKRMRDALLSLRYEKFEVLDEEVDMVDDYLIFDQYDPPRKLLV: not soluble

====

- measurement_notes: soluble on expression in E. coli; label from the status in PepcDB or PDB records
property_label: soluble on expression in E. coli

* MSGIAAGRLAEERKHWRKDHPFGFIAKPVKNADGTLNLFNWECAIPGRKDTIWEGGLYRIRMLFKDDFPSTPPKCKFEPPLFHPNVYPSGTVCLSLLDENKDWKPSISIKQLLIGIQDLLNHPNIEDPAQAEAYQIYCQNRAEYEKRVKKEAVKYAAELVQKQMLE | not soluble
* MGSDKIHHHHHHEATETQNEKVKVKVETVSVQDVEQLSEFTATVEANIKNNIAPQTPFRIEKIFAEVGDHVKAGQLLAKMDATSLKQAKIQLDNQEIEFKRIDELYKVGGASKSAWDAQKTSLEVARETYKNLVENTQLLSPISGIVTARNYDSGDMYSGGNPIYTVEEIRPVKLMVNVSESLFTKVKKGHEVDIRLDVYGDEVFKGKVNLVYPTIDPATRTFPVEIKIANSDERVRPGMFARVTMSFGHMDHVVAPDRSIVKQSGAGDRYIYVCKDGKVSYQKVKLGRRMGDKYEIISGVEDGDQVVITGQSRLTNGMEVEIENE | not soluble
* ATEEEYQLFLEPYLQETRLGAYDFPLFSTIFKAFSKKGSFKSLIDPYCFGQALSNGRAITFVVTHDIPNNDVFLDLIMDEEDEWIAYAYILGRDGGVPLVYTDLDTSGIKNKNGKPRWKDAWNDPRMAKMIAFHNVTHGESMTVLEGNDDMLVLKRGEKGIVVLNKSTRAQSLSLKTECDWFDLMSDQSVKAGIELKVPAKSFMLLVQK | not soluble

====

- measurement_notes: soluble on expression in E. coli; label from the status in PepcDB or PDB records
property_label: soluble on expression in E. coli

• MKSASDPFDLKRFVYAQAPVYRSVVEELRAGRKRGHWMWFVFPQLRGLGSSPLAVRYGISSLEEAQAYLQHDLLGPRLHECTGLVNQVQGRSIEEIFGPPDDLKLCSSMTLFARATDANQDFVALLAKYYGGGEDRRTVALLAVT = soluble
• MSLIGLDLDSAPDLIQSVPAPRLRRQVWLRTASGQRLAYATSWWEASHVDEYLQNRSLPIWASLARLRTELYRDVRGIYYGNSEALQLGFGVDGPFWGRHYLFWHHGQPLTLIYEVFSPYLTKYLGPMQLSSRNGKILEHHHHHH = not soluble
• MKGILGFEYGIVQAPLGPDISGPELVAAVANAGGIGLLRCPDWECPDYLRELIRKTKTLTEKPFGIGVVLAFPHDLNIKTILEEKVAVLQLYWGDCSQELVDDAHFAGVKVIPQVGNVEEARKAVAVGVDAIIVQGREAGGHVIGKDGLFSLLPRVVDLVGERDIPVIAAGGIVDGRGYVAALSLGAQGVCLGTRFVATHESYAHPIYKRKLIEYEKTEYTDVFGRARWPGAPQRVLETPFFDDWRSLPAHENEVNQPIIGRSTIHGVEKEIRRFSGTVPNMTTTGDLESMAMYAGQSVGLIKEILPAGEVVKSLVEEAQALILQKFNNATTT = not soluble
• GSMSLNDFLSSVLPVSEQFEYLSLQSIPLETHAVVTPNKDDKRVPKSTIKTQHFFSLFHQGKVFFSLEVYVYVTLWDEADAERLIFVSKADTNGYCNTRVSVRDITKIILEFILSIDPNYYLQKVKPAIRSTCPREILTKICLFTRPASQYLFPDSSKNSKKHILNGEELMKWWGFILDRLLIECFQNDTQAKLRIPGEDPARVRSYLRGMKYPLWQVGDIFTSKENSLAVYNIPLFPDDPKARFIHQLAEEDRLLKVSLSSFWIELQERQEFKLSVTSSVMGISGYSLATPSLFPSSADVIVPKSRKQFRAIKKYITGEEYDTEEGAIEAFTNIRDFLLLRMATNLQSLTGKREHRERNQPVPASNINTLAITMLKPRKKAKALPKT = soluble

====

- measurement_notes: soluble on expression in E. coli; label from the status in PepcDB or PDB records
property_label: soluble on expression in E. coli

- DEDDSADNIHAVSSERWRIHAATEIEDINTFFGTEYSSEEADTIGGLVIQELGHLPVRGEKVLIGGLQFTVARADNRRLHTLMATRVK: soluble
- MLKIISGKYRNQIIPTAKNIKYRPSTGKLKEAIFSILTSGEFTGNKLFNENTHILDLFAGSGSLAFESLSRGAGFATLIDIDTSSLKIAEGFAKSLNIENNVNFVNINALNLPKATRHLFKPAYREGSKGDTEHSTAAYTLVREDASTGSTFKLPLEAKFGKMSNKSFDLVFIDPPYHKNIVPKVMKLLIKNNWLKDGAIIVIEMAKTDDYILDENIEIIREKLYGKSKLLVLSFTVIPAKAGIQ: not soluble
- MGSDKIHHHHHHMELVVDAHELKEWVYLLDKLVGTTEPTARFLSFFYRDGLWVSASDNCAKVEIFLGEIPRFEGSRIVSLDLVKYFLSDVKVSDVRITVLQERLVLKAGNEVLDVRCKTGEIPPGDGEEEFLCTLTKREFEGALNFASSNLDEGEFLILLFEEKDVLMFGASAGIMTLAQISTIPKKPFSTKIPYVTVRHIFKAFQRLDVQTLDFYEKSGKLVVKYPHFVMEVCGDEVSEEEIKKLKSLLEEKTAERIEARRQVLAKLVRKAAVLSRGDYATISRRGENLKVQVKRKNLSYTAELFVESGRDFVVVFPSKKLRSALARMDTERIFLEITERFLKISNFSGTRVIYLELEEFF: not soluble
- AEIDTSSIVEMVQGAEDAPVEVIEYASYTCPHCAAFHEGPYKKLKADFIDTGKVRFIYREVYFDRYGLWASMVARCAGPEKFFGISDLIYKGQAEWSRAGGPAEIAEELRKIGRLAGIENDKLEACLGDATKAQTLVAWYQEHATRDDINSTPSFMINGKKVENQAYDGFKALIEAELGN: not soluble
- GPGSMVACTRLRRTQKVAKQKTETASNSHPRTSFLRRGRSTDCDIGALHVAATRVTLSVSHYATLLEGSVICVCFGFRLAAAAATNQLASSRLYRVPFAPLTSGLTNEKVLLRWSVAMSRKDAERKLTEDDCLTSSQQYDPQLIFYVPLRRKGYQAIDASAFVRCGGLRVVDISGNRLSTLSGLESVAPQLTFLNAAENSLHDIGALVTCAALERCMLEGNKLASVDSLQPLVSLPCLAELVLQRHVPLDDAAIGSGSPEQSSDKLLLLDNPVCRDAVAYREHFLAKMSHVRWVDGVSTYLRASSLAESTTTESHDAKENSTKAIVDAAIRSFQSIRVQMTATVSEETTLRHQLERAADRCKPSTVTVAARTP: not soluble
- MSLKTTTSSTPSDRITWVRISSCYLPLATPISDAKVLTGRQKPMTEIAILFAEIETAGGHQGLGFSYSKRAGGPGQFAHAREIAPALIGEDPSDIAKLWDKLCWAGASAGRSGLSTQAIGAFDVALWDLKAKRAGLSLAKLLGSYRDSVRCYNTSGGFLHTPIDQLMVNASASIERGIGGIKLKVGQPDGALDIARVTAVRKHLGDAVPLMVDANQQWDRPTAQRMCRIFEPFNLVWIEEPLDAYDHEGHAALALQFDTPIATGEMLTSAAEHGDLIRHRAADYLMPDAPRVGGITPFLKIASLAEHAGLMLAPHFAMELHVHLAAAYPREPWVEHFEWLEPLFNERIEIRDGRMLVPTRPGLGLTLSGQVKAWTREEAQVGTRPEGHHHHHH: soluble
- MKFLNQHELTKLLALLDLDHGLDWDYFLLLIAKTGLRFGEALGVTPMDFDMAKLTLTINKTWDYKSATGSFAETKNTASVRKVPLDWQVAMQFAAQIKSLPQDKPIFVTDGQRVYNETANDILERKCKRASIPVISIHGLRHTHASLLLYAGVSVGSVARRLGHANMSTTQKTYLHILEHHHHHH: soluble
- MGSDKIHHHHHHMILMRISIKGLGISGLYLYERLKQSGFDVTAFDVRRRDFYIPCAYATNFNLMKPFMSRIGIDFDNYVLFRSETITMSGENGSEIEFPSAGLVTFDRNGLQRDMMNRIEMETETKADLVVDATGISRSYLGRINGDLTYYTKEYLTDHVIHRDFYFLFLNRGVGYLWEFPLDRGHFHVGIGSIRRDDLNRIDRYNRIRITGRRIRMKPLFEVASIGNIVGIGESVGTVSPLTGEGILPSIESAELLYQAISDKSDPNEAIRLYLKKLNTSFSHYYKLSDFVRKVQTGKLLRPSNIRYASLITKDMKHFGIDFSLGKAVRALIQ: not soluble
- MGSDKIHHHHHHMHGKLVEVADGVYAYIQGRGEWFVNNAGLIVGEEFSVVVDSVCNEQRAKEMISQFREVTAKDFRILINTHGHPDHVWTNHLFDAVAVAHEMGRQETLMAFVEIYQSLFPDLDFSGAKITPQNITFESRMKLYNDAEMQIIHPGVAHTRGDCYIYIPQKKVVFCGDLLFAKPCTPLAVGGSVRGSVNALRELLNLDAKIYVPGHGGLAGEEHLVEAIEYFEFVWEEAKKRHERGMGWYEAAMDIDLGEYAKWSEAERIVGNVARAYAEIEGRELEFAELVEVARKMLEYGGGRK: not soluble
- MSLARHEAIVEPAQSTHTSGAHTSGAQAQPGVRPTTAAGRWRDVEMMAYKQDDAAPFRDVTRQLLFSDPRLACEWRYFEVAAGGYSTLEKHDHVHGVMIHRGKGQCLVGHHVSDVAVGDLVFIPPQTWHQFRANAGDVLGFLCLVNAERDRPQLPGDGDLAALRADPAIADFLSSEGHHHHHH: soluble
- MRRRRRRDGFYLAPDFRHREAEDMAGVFDIDLDQPEDAGSEDELEEGGQLNESMDHGGVGPYELGMEHCEKFEISETSVNRGPEKIRPECFELLRVLGKGGYGKVFQVRKVTGANTGKIFAMKVLKKAMIVRNAKDTAHTKAERNILEEVKHPFIVDLIYAFQTGGKPYLILEYLSG: soluble
